SYSTEM: T1, human programmed cell death protein 1 (hPD-1) C93S (aa 24-167) (Homo sapiens, UniProt Q15116, C93S)
T1 construct: made as a fusion with a TEV site and human Fc; the Fc was cut off with TEV protease; source: Expi293F, purified (Protein A, TEV cleavage of Fc, SEC; monomer fractions); not shown: Fc (human), C-terminal, cleaved
T1 sequence (Q15116 24-167 C93S): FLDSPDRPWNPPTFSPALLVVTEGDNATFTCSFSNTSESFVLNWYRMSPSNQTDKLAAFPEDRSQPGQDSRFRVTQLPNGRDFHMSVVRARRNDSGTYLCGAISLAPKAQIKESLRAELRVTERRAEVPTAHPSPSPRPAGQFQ
ASSAY NOTES: SPR; Carterra LSA; Fab from the ammonium sulfate precipitate of the culture supernatant immobilised on a NiHC200M chip; hPD-1 (1-1024 nM) or mPD-1-Fc (4-1024 nM) as analyte, fourfold dilution series, no regeneration; HBS-EP pH 7.4, 25 °C; medians over the spots of a construct, KD = koff/kon
MEASUREMENT CONTEXT: one partner purified
# koff annotations

Query :: Which measured koff value corresponds to toripalimab Fab H.T106Y (Fab, V domains shown, heavy chain of Sm3 with this change; numbers count from the chain's first residue; as the light chain of Sm3; source: Brevibacillus, culture supernatant (ammonium sulfate precipitate); not shown: 6xHis, C-terminal, kept; 6xHN, C-terminal, kept) VH: QGQLVQSGAEVKKPGASVKVSCKASGYTFTDYEMHWVRQAPIHGLEWIGVIESETGGTAYNQKFKGRVTITADKSTSTAYMELSSLRSEDTAVYYCAREGITTVAYTYYWYFDVWGQGTTVTVSS VL: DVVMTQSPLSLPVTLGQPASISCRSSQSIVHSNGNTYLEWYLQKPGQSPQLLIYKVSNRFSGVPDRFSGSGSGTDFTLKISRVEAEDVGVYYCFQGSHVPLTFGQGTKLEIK ?
Result :: 1.75e-05 s⁻¹

Query :: Then what about the binder toripalimab Fab H.T107A (Fab, V domains shown, heavy chain of Sm3 with this change; numbers count from the chain's first residue; as the light chain of Sm3; source: Brevibacillus, culture supernatant (ammonium sulfate precipitate); not shown: 6xHis, C-terminal, kept; 6xHN, C-terminal, kept) VH: QGQLVQSGAEVKKPGASVKVSCKASGYTFTDYEMHWVRQAPIHGLEWIGVIESETGGTAYNQKFKGRVTITADKSTSTAYMELSSLRSEDTAVYYCAREGITTVATAYYWYFDVWGQGTTVTVSS VL: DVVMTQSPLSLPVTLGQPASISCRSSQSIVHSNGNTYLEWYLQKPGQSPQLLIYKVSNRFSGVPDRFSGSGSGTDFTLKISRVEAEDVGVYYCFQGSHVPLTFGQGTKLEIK ?
Result :: < 1e-05 s⁻¹

Query :: Then what about the binder toripalimab Fab L.V99P (Fab, V domains shown, as the heavy chain of Sm3; light chain of Sm3 with this change; numbers count from the chain's first residue; source: Brevibacillus, culture supernatant (ammonium sulfate precipitate); not shown: 6xHis, C-terminal, kept; 6xHN, C-terminal, kept) VH: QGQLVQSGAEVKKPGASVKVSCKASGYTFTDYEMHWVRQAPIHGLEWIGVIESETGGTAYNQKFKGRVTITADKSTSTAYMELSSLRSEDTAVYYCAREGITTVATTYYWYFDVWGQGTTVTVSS VL: DVVMTQSPLSLPVTLGQPASISCRSSQSIVHSNGNTYLEWYLQKPGQSPQLLIYKVSNRFSGVPDRFSGSGSGTDFTLKISRVEAEDVGVYYCFQGSHPPLTFGQGTKLEIK ?
Result :: 0.000192 s⁻¹

Query :: Then what about the binder toripalimab Fab L.T36A (Fab, V domains shown, as the heavy chain of Sm3; light chain of Sm3 with this change; numbers count from the chain's first residue; source: Brevibacillus, culture supernatant (ammonium sulfate precipitate); not shown: 6xHis, C-terminal, kept; 6xHN, C-terminal, kept) VH: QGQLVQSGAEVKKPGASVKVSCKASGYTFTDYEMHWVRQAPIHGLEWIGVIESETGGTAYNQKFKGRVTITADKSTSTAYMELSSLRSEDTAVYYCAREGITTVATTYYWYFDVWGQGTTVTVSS VL: DVVMTQSPLSLPVTLGQPASISCRSSQSIVHSNGNAYLEWYLQKPGQSPQLLIYKVSNRFSGVPDRFSGSGSGTDFTLKISRVEAEDVGVYYCFQGSHVPLTFGQGTKLEIK ?
Result :: < 1e-05 s⁻¹

Query :: Then what about the binder toripalimab Fab H.V114Y (Fab, V domains shown, heavy chain of Sm3 with this change; numbers count from the chain's first residue; as the light chain of Sm3; source: Brevibacillus, culture supernatant (ammonium sulfate precipitate); not shown: 6xHis, C-terminal, kept; 6xHN, C-terminal, kept) VH: QGQLVQSGAEVKKPGASVKVSCKASGYTFTDYEMHWVRQAPIHGLEWIGVIESETGGTAYNQKFKGRVTITADKSTSTAYMELSSLRSEDTAVYYCAREGITTVATTYYWYFDYWGQGTTVTVSS VL: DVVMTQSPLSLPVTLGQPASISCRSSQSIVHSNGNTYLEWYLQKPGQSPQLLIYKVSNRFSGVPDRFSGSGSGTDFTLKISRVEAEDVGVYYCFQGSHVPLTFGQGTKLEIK ?
Result :: 2.39e-05 s⁻¹

Query :: Then what about the binder toripalimab Fab H.E33Y (Fab, V domains shown, heavy chain of Sm3 with this change; numbers count from the chain's first residue; as the light chain of Sm3; source: Brevibacillus, culture supernatant (ammonium sulfate precipitate); not shown: 6xHis, C-terminal, kept; 6xHN, C-terminal, kept) VH: QGQLVQSGAEVKKPGASVKVSCKASGYTFTDYYMHWVRQAPIHGLEWIGVIESETGGTAYNQKFKGRVTITADKSTSTAYMELSSLRSEDTAVYYCAREGITTVATTYYWYFDVWGQGTTVTVSS VL: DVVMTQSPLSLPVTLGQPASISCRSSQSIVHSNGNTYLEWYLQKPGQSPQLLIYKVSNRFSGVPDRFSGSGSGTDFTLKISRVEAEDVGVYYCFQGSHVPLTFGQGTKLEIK ?
Result :: 0.00629 s⁻¹

Query :: Then what about the binder toripalimab Fab L.S26Y (Fab, V domains shown, as the heavy chain of Sm3; light chain of Sm3 with this change; numbers count from the chain's first residue; source: Brevibacillus, culture supernatant (ammonium sulfate precipitate); not shown: 6xHis, C-terminal, kept; 6xHN, C-terminal, kept) VH: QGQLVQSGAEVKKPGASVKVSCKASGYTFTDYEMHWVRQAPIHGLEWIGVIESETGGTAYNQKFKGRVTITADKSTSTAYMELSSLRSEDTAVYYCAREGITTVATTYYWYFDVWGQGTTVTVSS VL: DVVMTQSPLSLPVTLGQPASISCRSYQSIVHSNGNTYLEWYLQKPGQSPQLLIYKVSNRFSGVPDRFSGSGSGTDFTLKISRVEAEDVGVYYCFQGSHVPLTFGQGTKLEIK ?
Result :: < 1e-05 s⁻¹

Query :: Then what about the binder toripalimab Fab H.T55A (Fab, V domains shown, heavy chain of Sm3 with this change; numbers count from the chain's first residue; as the light chain of Sm3; source: Brevibacillus, culture supernatant (ammonium sulfate precipitate); not shown: 6xHis, C-terminal, kept; 6xHN, C-terminal, kept) VH: QGQLVQSGAEVKKPGASVKVSCKASGYTFTDYEMHWVRQAPIHGLEWIGVIESEAGGTAYNQKFKGRVTITADKSTSTAYMELSSLRSEDTAVYYCAREGITTVATTYYWYFDVWGQGTTVTVSS VL: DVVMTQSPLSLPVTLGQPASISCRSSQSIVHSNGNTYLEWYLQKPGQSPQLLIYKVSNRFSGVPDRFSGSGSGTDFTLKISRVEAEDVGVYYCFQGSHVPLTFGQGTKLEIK ?
Result :: 4.01e-05 s⁻¹

Query :: Then what about the binder toripalimab Fab L.L38A (Fab, V domains shown, as the heavy chain of Sm3; light chain of Sm3 with this change; numbers count from the chain's first residue; source: Brevibacillus, culture supernatant (ammonium sulfate precipitate); not shown: 6xHis, C-terminal, kept; 6xHN, C-terminal, kept) VH: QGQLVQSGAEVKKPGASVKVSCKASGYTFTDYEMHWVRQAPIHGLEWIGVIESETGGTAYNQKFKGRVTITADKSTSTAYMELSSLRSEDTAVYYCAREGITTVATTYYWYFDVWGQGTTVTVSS VL: DVVMTQSPLSLPVTLGQPASISCRSSQSIVHSNGNTYAEWYLQKPGQSPQLLIYKVSNRFSGVPDRFSGSGSGTDFTLKISRVEAEDVGVYYCFQGSHVPLTFGQGTKLEIK ?
Result :: < 1e-05 s⁻¹

Query :: Then what about the binder toripalimab Fab L.R59A (Fab, V domains shown, as the heavy chain of Sm3; light chain of Sm3 with this change; numbers count from the chain's first residue; source: Brevibacillus, culture supernatant (ammonium sulfate precipitate); not shown: 6xHis, C-terminal, kept; 6xHN, C-terminal, kept) VH: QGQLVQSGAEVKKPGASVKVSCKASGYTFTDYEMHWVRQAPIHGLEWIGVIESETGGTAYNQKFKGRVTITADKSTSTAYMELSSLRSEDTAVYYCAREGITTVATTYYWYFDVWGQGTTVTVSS VL: DVVMTQSPLSLPVTLGQPASISCRSSQSIVHSNGNTYLEWYLQKPGQSPQLLIYKVSNAFSGVPDRFSGSGSGTDFTLKISRVEAEDVGVYYCFQGSHVPLTFGQGTKLEIK ?
Result :: < 1e-05 s⁻¹

Data provenance: paper PMC10663500
